- Target Desc: Mouse TMEM16A (Mus musculus, UniProt Q8BHY3)
- Construct: expressed in transfected cells; host or cells: HEK-293T
- Assay Info: Time-course of current block analysed by Langmuir formalism (kon, koff), 12.5 μM [Ca2+]i
- Type: cell-based
- Study Conditions: Vm 100 mV, read-out: Ki calculated as koff/kon
Measurement Kind: Ki

INSERT INTO assay_data (compound_smiles, measurement_kind, endpoint_value) VALUES
  ('O=C(O)c1c2ccccc2cc2ccccc12', 'Ki', '12 µM');

---

- Target Desc: Mouse TMEM16A (Mus musculus, UniProt Q8BHY3)
- Construct: expressed in transfected cells; host or cells: HEK-293T
- Assay Info: Whole-cell concentration-jump protocol separating A9C block and activation, 300 nM [Ca2+]i
- Assay type: cell-based
- Study Conditions: 300 nM [Ca2+]i (rounded in Discussion); read-out: K i(0)
pKi: −log10 of the molar value.
Measurement Kind: pKi

INSERT INTO results (compound_smiles, measurement_kind, endpoint_value) VALUES
  ('O=C(O)c1c2ccccc2cc2ccccc12', 'pKi', '~2.08');

---

- Target Desc: Mouse TMEM16A (Mus musculus, UniProt Q8BHY3)
- Construct: expressed in transfected cells; host or cells: HEK-293T
- Sequence (Q8BHY3 1-960): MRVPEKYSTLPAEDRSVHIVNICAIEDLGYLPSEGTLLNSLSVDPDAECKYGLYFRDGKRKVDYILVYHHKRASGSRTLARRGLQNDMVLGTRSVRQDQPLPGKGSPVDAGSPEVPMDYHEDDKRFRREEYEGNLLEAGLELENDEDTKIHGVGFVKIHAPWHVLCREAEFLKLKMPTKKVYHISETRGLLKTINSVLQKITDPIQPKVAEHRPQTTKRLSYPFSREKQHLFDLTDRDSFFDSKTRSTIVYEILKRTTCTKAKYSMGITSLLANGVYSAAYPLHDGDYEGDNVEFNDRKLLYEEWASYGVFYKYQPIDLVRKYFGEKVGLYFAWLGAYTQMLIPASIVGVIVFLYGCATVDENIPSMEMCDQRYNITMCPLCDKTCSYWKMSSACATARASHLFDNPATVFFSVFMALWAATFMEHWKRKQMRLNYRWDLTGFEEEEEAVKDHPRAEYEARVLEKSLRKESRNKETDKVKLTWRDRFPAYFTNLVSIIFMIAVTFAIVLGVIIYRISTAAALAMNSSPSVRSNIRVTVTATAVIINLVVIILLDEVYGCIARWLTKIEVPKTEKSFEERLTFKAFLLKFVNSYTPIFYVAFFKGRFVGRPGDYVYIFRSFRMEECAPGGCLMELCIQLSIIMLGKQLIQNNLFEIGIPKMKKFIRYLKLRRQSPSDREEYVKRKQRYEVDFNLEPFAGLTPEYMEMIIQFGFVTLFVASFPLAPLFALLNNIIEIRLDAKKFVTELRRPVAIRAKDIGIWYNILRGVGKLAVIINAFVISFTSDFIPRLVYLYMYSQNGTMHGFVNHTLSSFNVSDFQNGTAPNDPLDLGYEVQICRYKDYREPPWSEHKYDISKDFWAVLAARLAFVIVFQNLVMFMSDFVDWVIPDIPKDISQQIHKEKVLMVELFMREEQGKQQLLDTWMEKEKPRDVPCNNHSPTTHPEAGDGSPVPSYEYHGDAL
- Assay Info: Whole-cell [A9C]ext-inhibition relationship (Hill and Woodhull fits), 12.5 μM [Ca2+]i
- Assay type: cell-based
- Study Conditions: +80 mV, mouse TMEM16A (rounded in Discussion); read-out: K i
Measurement Kind: Ki

INSERT INTO measurements (compound_smiles, target_desc, endpoint_value) VALUES
  ('O=C(O)c1c2ccccc2cc2ccccc12', 'Mouse TMEM16A (Mus musculus, UniProt Q8BHY3)', '~50 µM');

---

- Target Desc: Mouse TMEM16A (Mus musculus, UniProt Q8BHY3)
- Construct: expressed in transfected cells; host or cells: HEK-293T
- Assay Info: Whole-cell concentration-jump protocol separating A9C block and activation, 300 nM [Ca2+]i
- Type: cell-based
- Study Conditions: V m 70 mV, 300 nM [Ca2+]i, [A9C]ext; read-out: EC50 (b) activation
Measurement Kind: EC50 (µM)

INSERT INTO results (compound, measurement_kind, result_unit, endpoint_value) VALUES
  ('O=C(O)c1c2ccccc2cc2ccccc12 [A9C, Anthracene‐9‐carboxylic acid]', 'EC50', 'µM', 440);

---

- Target Desc: Mouse TMEM16A (Mus musculus, UniProt Q8BHY3)
- Construct: expressed in transfected cells; host or cells: HEK-293T
- Assay Info: Whole-cell [A9C]ext-inhibition relationship (Hill and Woodhull fits), 12.5 μM [Ca2+]i
- Format: cell-based
- Study Conditions: 12.5 μM [Ca2+]i (rounded in Discussion); read-out: K i(0)
- From the text: Mouse TMEM16A (GenBank NM_178642) subcloned into pcDNA3.1 vector was used in this study (Alexander et al., 2013). […] The relationship between [A9C] and TMEM16A current inhibition was obtained by measuring the currents at the end of 250 ms V m steps from +20 to +120 mV in 20 mV increments elicited every 2 s from a holding V m of −70 mV. TMEM16A currents measured in the presence of A9C (I b) were normalized to currents measured in the absence of A9C (I 0) and plotted against [A9C]. […]
pKi: −log10 of the molar value.
Measurement Kind: pKi

INSERT INTO results (compound_smiles, measurement_kind, endpoint_value) VALUES
  ('O=C(O)c1c2ccccc2cc2ccccc12', 'pKi', '~3.52');

---

- Target Desc: Mouse TMEM16A (Mus musculus, UniProt Q8BHY3)
- Construct: expressed in transfected cells; host or cells: HEK-293T
- Sequence (Q8BHY3 1-960): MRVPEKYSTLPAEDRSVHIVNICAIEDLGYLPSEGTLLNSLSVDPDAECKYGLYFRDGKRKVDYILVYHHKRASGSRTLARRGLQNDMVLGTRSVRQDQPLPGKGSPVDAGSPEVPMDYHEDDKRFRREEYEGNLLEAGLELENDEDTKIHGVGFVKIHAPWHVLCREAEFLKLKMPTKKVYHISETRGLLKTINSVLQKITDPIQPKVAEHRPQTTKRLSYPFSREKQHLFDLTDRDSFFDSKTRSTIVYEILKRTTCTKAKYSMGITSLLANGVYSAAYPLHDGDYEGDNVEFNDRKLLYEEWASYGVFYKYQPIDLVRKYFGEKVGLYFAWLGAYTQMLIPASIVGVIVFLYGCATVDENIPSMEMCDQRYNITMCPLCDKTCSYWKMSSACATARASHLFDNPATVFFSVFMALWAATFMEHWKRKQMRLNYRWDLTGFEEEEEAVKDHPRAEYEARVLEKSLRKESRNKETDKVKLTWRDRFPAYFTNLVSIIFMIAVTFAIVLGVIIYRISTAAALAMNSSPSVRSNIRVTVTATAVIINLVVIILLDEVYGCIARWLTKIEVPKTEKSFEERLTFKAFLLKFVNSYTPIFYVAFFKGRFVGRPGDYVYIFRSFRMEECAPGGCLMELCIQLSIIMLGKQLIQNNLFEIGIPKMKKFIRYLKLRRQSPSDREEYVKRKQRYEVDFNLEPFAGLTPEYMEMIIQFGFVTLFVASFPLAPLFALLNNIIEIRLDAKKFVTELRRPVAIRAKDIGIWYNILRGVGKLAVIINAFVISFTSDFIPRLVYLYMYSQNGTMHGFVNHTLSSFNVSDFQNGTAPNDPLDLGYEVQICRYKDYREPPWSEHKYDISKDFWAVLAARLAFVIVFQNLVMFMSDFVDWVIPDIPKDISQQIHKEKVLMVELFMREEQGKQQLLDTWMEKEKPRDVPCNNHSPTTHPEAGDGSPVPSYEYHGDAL
- Assay Info: Whole-cell [A9C]ext-inhibition relationship (Hill and Woodhull fits), 12.5 μM [Ca2+]i
- Assay type: cell-based
- Study Conditions: V m 100, 12.5 μM [Ca2+]i, [A9C]ext; unit inferred; read-out: K i (Hill fit of inhibition)
- Excerpt: Mouse TMEM16A (GenBank NM_178642) subcloned into pcDNA3.1 vector was used in this study (Alexander et al., 2013). […] The relationship between [A9C] and TMEM16A current inhibition was obtained by measuring the currents at the end of 250 ms V m steps from +20 to +120 mV in 20 mV increments elicited every 2 s from a holding V m of −70 mV. TMEM16A currents measured in the presence of A9C (I b) were normalized to currents measured in the absence of A9C (I 0) and plotted against [A9C]. […]
Measurement Kind: Ki

INSERT INTO assay_data (compound, endpoint_value) VALUES
  ('O=C(O)c1c2ccccc2cc2ccccc12 [A9C, Anthracene‐9‐carboxylic acid]', '31 µM');

---

- Target Desc: Mouse TMEM16A (Mus musculus)
- Construct: expressed in transfected cells; host or cells: HEK-293T
- Sequence (Q8BHY3 1-960): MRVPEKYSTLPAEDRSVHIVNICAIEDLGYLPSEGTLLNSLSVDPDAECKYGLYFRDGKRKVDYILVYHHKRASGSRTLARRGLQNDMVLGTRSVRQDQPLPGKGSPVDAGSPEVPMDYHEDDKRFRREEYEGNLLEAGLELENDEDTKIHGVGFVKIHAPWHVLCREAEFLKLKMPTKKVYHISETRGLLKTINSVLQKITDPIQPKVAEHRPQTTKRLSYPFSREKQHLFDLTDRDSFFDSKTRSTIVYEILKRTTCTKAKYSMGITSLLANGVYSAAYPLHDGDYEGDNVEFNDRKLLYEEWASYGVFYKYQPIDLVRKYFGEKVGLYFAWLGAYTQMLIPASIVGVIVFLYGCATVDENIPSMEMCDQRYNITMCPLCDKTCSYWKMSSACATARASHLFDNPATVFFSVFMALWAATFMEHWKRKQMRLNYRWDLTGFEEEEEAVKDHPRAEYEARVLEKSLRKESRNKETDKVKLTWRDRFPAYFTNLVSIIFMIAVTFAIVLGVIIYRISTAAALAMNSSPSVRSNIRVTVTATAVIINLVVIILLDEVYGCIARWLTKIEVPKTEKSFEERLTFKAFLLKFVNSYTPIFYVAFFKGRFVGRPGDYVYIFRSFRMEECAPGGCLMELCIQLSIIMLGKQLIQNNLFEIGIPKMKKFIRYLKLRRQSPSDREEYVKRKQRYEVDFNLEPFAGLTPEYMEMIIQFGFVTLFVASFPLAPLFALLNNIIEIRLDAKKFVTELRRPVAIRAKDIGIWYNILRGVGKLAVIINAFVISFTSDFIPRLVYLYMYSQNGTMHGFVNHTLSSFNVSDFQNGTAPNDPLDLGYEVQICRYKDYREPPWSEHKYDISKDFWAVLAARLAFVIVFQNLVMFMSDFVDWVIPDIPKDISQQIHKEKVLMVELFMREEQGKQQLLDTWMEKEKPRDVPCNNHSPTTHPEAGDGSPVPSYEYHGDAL
- Assay Info: Time-course of current block analysed by Langmuir formalism (kon, koff), 12.5 μM [Ca2+]i
- Format: cell-based
- Study Conditions: Vm 60 mV, read-out: Ki calculated as koff/kon
Measurement Kind: Ki

INSERT INTO assay_data (compound_smiles, target_desc, endpoint_value) VALUES
  ('O=C(O)c1c2ccccc2cc2ccccc12', 'Mouse TMEM16A (Mus musculus)', '62 µM');
